- Test Summary: solvent given as SMILES
- Condition Label: in CO
In this section we review reported solvation free energy, 298 K values for a set of molecules.
The response must be a number in kcal/mol with no trailing unit.

Worked set:
INSERT INTO assay_data (molecule, test_value) VALUES
  ('CC(C)=O', -4.05),
  ('CCCCC', -2.29),
  ('CCC(C)O (stereo unspecified)', -6.02),
  ('CCCC(=O)OC', -4.84),
  ('CCO', -5.28),
  ('C1CCOC1', -4.43);

Query string: Read off the recorded solvation free energy, 298 K for CCCCCCc1ccccc1
Result string: -7.13

Query string: Read off the recorded solvation free energy, 298 K for C=C(Cl)Cl
Result string: -2.95

Query string: Read off the recorded solvation free energy, 298 K for CC(C)C(C)C(C)C
Result string: -3.64

Query string: Read off the recorded solvation free energy, 298 K for CC#N
Result string: -4.04

Query string: Read off the recorded solvation free energy, 298 K for CCCCCCC
Result string: -3.39

Query string: Read off the recorded solvation free energy, 298 K for CCOC(C)=O
Result string: -4.38

Query string: Read off the recorded solvation free energy, 298 K for O=[N+]([O-])c1ccc(Cl)c(Cl)c1
Result string: -8.41

* * *

In this section we review reported solvation free energy, 298 K values for a set of compounds.
- Test Summary: solvent given as SMILES
- Condition Label: in CN(C)C=O
The response must be a number in kcal/mol with no trailing unit.

INSERT INTO assay_data (test_smiles, assay_metric, value_unit, test_value) VALUES
  ('CC(C)C(C)C(C)C', 'solvation free energy, 298 K', 'kcal/mol', -3.53);

Query string: Read off the recorded solvation free energy, 298 K for C1=CCC=C1
Result string: -3.41

Query string: Read off the recorded solvation free energy, 298 K for CCc1ccccc1
Result string: -5.41

Query string: Read off the recorded solvation free energy, 298 K for C#CCCCCC
Result string: -4.37

Query string: Read off the recorded solvation free energy, 298 K for FC(F)(F)F
Result string: 1.56

Query string: Read off the recorded solvation free energy, 298 K for C#CCC
Result string: -2.92

Query string: Read off the recorded solvation free energy, 298 K for COC(=O)c1ccc(Br)cc1
Result string: -9.25

Query string: Read off the recorded solvation free energy, 298 K for CCOC(C)=O
Result string: -4.32

* * *

- Test Summary: solvent given as SMILES
- Condition Label: in C1CCCCC1
Assay Metric: solvation free energy, 298 K (kcal/mol)
The response must be a number in kcal/mol with no trailing unit.

INSERT INTO measurements (test_smiles, assay_metric, value_unit, test_value) VALUES
  ('O=[N+]([O-])c1ccc(Cl)c(Cl)c1', 'solvation free energy, 298 K', 'kcal/mol', -8.7),
  ('CN1CCCC1=O', 'solvation free energy, 298 K', 'kcal/mol', -5.73),
  ('CCCCC', 'solvation free energy, 298 K', 'kcal/mol', -3.34);

For the next question, use this compound.
Query string: Read off the recorded solvation free energy, 298 K for CCCCCC
Result string: -4.06

* * *

In this section we review reported solvation free energy, 298 K values for a set of compounds.
- Test Summary: solvent given as SMILES
- Condition Label: in CC(C)CC(C)(C)C
The response must be a number in kcal/mol with no trailing unit.

Worked set:
INSERT INTO measurements (test_smiles, assay_metric, test_value) VALUES
  ('c1cc2ccc3cccc4ccc(c1)c2c34', 'solvation free energy, 298 K', -11.3),
  ('CCN(C)N=O', 'solvation free energy, 298 K', -4.43),
  ('CCO', 'solvation free energy, 298 K', -2.36),
  ('CCCCCCO', 'solvation free energy, 298 K', -5.1),
  ('CN1CCCC1=O', 'solvation free energy, 298 K', -5.93),
  ('c1ccc2c(c1)Sc1ccccc1S2', 'solvation free energy, 298 K', -11.1);

Query string: Read off the recorded solvation free energy, 298 K for c1ccncc1
Result string: -4.03

Query string: Read off the recorded solvation free energy, 298 K for C=CC(C)C
Result string: -2.87

Query string: Read off the recorded solvation free energy, 298 K for c1ccc(-c2ccccc2)cc1
Result string: -8.32

Query string: Read off the recorded solvation free energy, 298 K for CC(C)=O
Result string: -2.44

Query string: Read off the recorded solvation free energy, 298 K for CCc1ccccc1
Result string: -5.3

Query string: Read off the recorded solvation free energy, 298 K for Cc1cc(C)c(C)cc1C
Result string: -7.1

Query string: Read off the recorded solvation free energy, 298 K for Oc1ccc(Cl)cc1
Result string: -6.6

Query string: Read off the recorded solvation free energy, 298 K for CCOC(C)=O
Result string: -3.53

Query string: Read off the recorded solvation free energy, 298 K for FC(F)(F)F
Result string: 0.56

Query string: Read off the recorded solvation free energy, 298 K for CCCCC(C)=O
Result string: -4.72

Query string: Read off the recorded solvation free energy, 298 K for CI
Result string: -2.94

Query string: Read off the recorded solvation free energy, 298 K for O=[N+]([O-])c1cccc2ccccc12
Result string: -9.18

Query string: Read off the recorded solvation free energy, 298 K for Oc1cccc2ccccc12
Result string: -8.54

* * *

In this section we review reported solvation free energy, 298 K values for a set of compounds.
- Test Summary: solvent given as SMILES
- Condition Label: in C1COCCO1
The response must be a number in kcal/mol with no trailing unit.

Worked set:
INSERT INTO measurements (test_smiles, assay_metric, value_unit, test_value) VALUES
  ('CCc1ccccc1', 'solvation free energy, 298 K', 'kcal/mol', -5.7),
  ('c1ccc2c(c1)Sc1ccccc1S2', 'solvation free energy, 298 K', 'kcal/mol', -12.8),
  ('CCc1ccc2c(c1)C(=O)c1ccccc1C2=O', 'solvation free energy, 298 K', 'kcal/mol', -14.1),
  ('C#CCC', 'solvation free energy, 298 K', 'kcal/mol', -3),
  ('C1COCCN1', 'solvation free energy, 298 K', 'kcal/mol', -5.72);

Query string: Read off the recorded solvation free energy, 298 K for CCOC(C)=O
Result string: -4.49

Query string: Read off the recorded solvation free energy, 298 K for CCO
Result string: -4.36

Query string: Read off the recorded solvation free energy, 298 K for CC(C)C(C)C(C)C
Result string: -4.17

Query string: Read off the recorded solvation free energy, 298 K for O=C(O)c1cccc([N+](=O)[O-])c1
Result string: -12.2

Query string: Read off the recorded solvation free energy, 298 K for CN(C)C=O
Result string: -6.17

Query string: Read off the recorded solvation free energy, 298 K for CCCCCCC
Result string: -3.86

Query string: Read off the recorded solvation free energy, 298 K for COc1ccc(C(=O)O)cc1
Result string: -12.4

* * *

- Test Summary: solvent given as SMILES
- Condition Label: in CCCCCCCCCCCCCCCC
Binary label based on solvation free energy, 298 K with cut-off -4 kcal/mol: below gives 1.0, not below gives 0.0.

INSERT INTO measurements (compound, answer_label) VALUES
  ('FC(F)(F)F', 0.0),
  ('C1CCCCCCC1', 1.0);

Query string: Would you kindly verify if solvation free energy, 298 K of CCOCC is strictly less than -4 kcal/mol?
Result string: 0.0

Query string: Would you kindly verify if solvation free energy, 298 K of CC(=O)C(C)C is strictly less than -4 kcal/mol?
Result string: 0.0

Query string: Would you kindly verify if solvation free energy, 298 K of CC(Cl)(Cl)Cl is strictly less than -4 kcal/mol?
Result string: 0.0

* * *

- Test Summary: solvent given as SMILES
- Condition Label: in O
Binary label based on solvation free energy, 298 K with cut-off -3 kcal/mol: below gives t, not below gives f.

INSERT INTO measurements (compound, answer_label) VALUES
  ('Cc1ccc(O)cc1C', 't'),
  ('C1CCOCC1', 't'),
  ('CCOP(=S)(OCC)Oc1ccc([N+](=O)[O-])cc1', 't'),
  ('Nc1ncnc2nc[nH]c12', 't'),
  ('Clc1cc(Cl)c(-c2cc(Cl)c(Cl)c(Cl)c2Cl)cc1Cl', 't'),
  ('ClC1=C(Cl)C2(Cl)C3C(Cl)C=CC3C1(Cl)C2(Cl)Cl (stereo unspecified)', 'f'),
  ('O=C(CC(=O)C(F)(F)F)C(F)(F)F', 't'),
  ('CCCOC(=O)c1ccc(O)cc1', 't'),
  ('c1ccc2c(c1)OCCOCCOCCOCCO2', 't'),
  ('CCCCCN', 't');

Query string: Would you kindly verify if solvation free energy, 298 K of C=CC(C)(C)C is strictly less than -3 kcal/mol?
Result string: f

Query string: Would you kindly verify if solvation free energy, 298 K of CC(=O)CC(=O)c1ccc(F)c(F)c1F is strictly less than -3 kcal/mol?
Result string: t

Query string: Would you kindly verify if solvation free energy, 298 K of N#Cc1ccccc1 is strictly less than -3 kcal/mol?
Result string: t

Query string: Would you kindly verify if solvation free energy, 298 K of CCOc1ccc(C(=O)N(O)c2ccc(C)cc2)cc1 is strictly less than -3 kcal/mol?
Result string: t

Query string: Would you kindly verify if solvation free energy, 298 K of c1ccc(Oc2ccccc2)cc1 is strictly less than -3 kcal/mol?
Result string: f

Query string: Would you kindly verify if solvation free energy, 298 K of CCc1cccc(CC)c1N(COC)C(=O)CCl is strictly less than -3 kcal/mol?
Result string: t

Query string: Would you kindly verify if solvation free energy, 298 K of Clc1ccc(-c2ccccc2)cc1 is strictly less than -3 kcal/mol?
Result string: f

Query string: Would you kindly verify if solvation free energy, 298 K of O=C(O)c1cc(-c2ccc(F)cc2F)ccc1O is strictly less than -3 kcal/mol?
Result string: t
